# System: MPNST complex spheroid with HUVEC/MSC, growth, % test/control
# Experiment: Anticancer human tumor MPNST cell line growth inhibition [Asc];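 further: compounds left on spheroids for seven days before reading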
# Assay Conditions: curve of first compound; second compound 0.316 µM
# Source text: Multicellular complex tumor spheroid response to apoptosis pathway targeting inhibitors Alrizomadlin, Pelcitoclax, and Dasminapant in combination with a variety of drugs and investigational agents in selected tumor cell lines […] Compounds. […] If the clinical Cmax for an agent had not been determined, the highest concentration tested was 10 microM. […]
pIC50: −log10 of the molar value.
Reported Metric: pIC50

Illustrative cases are given below, each with its answer.
CNC(C)C(=O)NC1CN(S(=O)(=O)c2cccc(S(=O)(=O)N3CCC4CCC(C(=O)NC(c5ccccc5)c5ccccc5)N4C(=O)C(NC(=O)C(C)NC)C3)c2)CCC2CCC(C(=O)NC(c3ccccc3)c3ccccc3)N2C1=O (centres undefined) + Cc1c(S(C)(=O)=O)c(-c2cc(F)cc(N3CCN(c4ccc(NS(=O)(=O)c5ccc(NC(CCN6CCC(C(=O)OCCCP(=O)(O)O)CC6)CSc6ccccc6)c(S(=O)(=O)C(F)(F)F)c5)cc4)CC3)c2)c(-c2ccc(Cl)cc2)n1C(C)C | < 6.00
NC1CCC(NC2CC2c2ccccc2)CC1 (centres undefined) + Cc1c(S(C)(=O)=O)c(-c2cc(F)cc(N3CCN(c4ccc(NS(=O)(=O)c5ccc(NC(CCN6CCC(C(=O)OCCCP(=O)(O)O)CC6)CSc6ccccc6)c(S(=O)(=O)C(F)(F)F)c5)cc4)CC3)c2)c(-c2ccc(Cl)cc2)n1C(C)C | < 7.00
Cn1ncnc1[C@H]1c2n[nH]c(=O)c3cc(F)cc(c23)N[C@@H]1c1ccc(F)cc1 + Cc1c(S(C)(=O)=O)c(-c2cc(F)cc(N3CCN(c4ccc(NS(=O)(=O)c5ccc(NC(CCN6CCC(C(=O)OCCCP(=O)(O)O)CC6)CSc6ccccc6)c(S(=O)(=O)C(F)(F)F)c5)cc4)CC3)c2)c(-c2ccc(Cl)cc2)n1C(C)C | < 7.00

Incoming: Suppose we examine the molecule NC(=O)C(=Cn1cnc(-c2cc(C(F)(F)F)cc(C(F)(F)F)c2)n1)c1cncnc1 + Cc1c(S(C)(=O)=O)c(-c2cc(F)cc(N3CCN(c4ccc(NS(=O)(=O)c5ccc(NC(CCN6CCC(C(=O)OCCCP(=O)(O)O)CC6)CSc6ccccc6)c(S(=O)(=O)C(F)(F)F)c5)cc4)CC3)c2)c(-c2ccc(Cl)cc2)n1C(C)C ; what pIC50 value has been reported?
Outgoing: 6.76

* * *

compounds and their reported viability, T/C
# System: MPNST complex spheroid with HUVEC/MSC, growth, % test/control
# Experiment: Anticancer human tumor MPNST cell line growth inhibition [Asc];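 further: compounds left on spheroids for seven days before reading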
# Assay Conditions: second compound 0.00316 µM; first compound 0.0316 µM; stronger effect = lower value
Use % as the unit, but write only the number.

O=C(c1ccc(F)c(F)c1Nc1ccc(I)cc1F)N1CC(O)([C@@H]2CCCCN2)C1 + CNC(C)C(=O)NC1CN(S(=O)(=O)c2cccc(S(=O)(=O)N3CCC4CCC(C(=O)NC(c5ccccc5)c5ccccc5)N4C(=O)C(NC(=O)C(C)NC)C3)c2)CCC2CCC(C(=O)NC(c3ccccc3)c3ccccc3)N2C1=O | 82.4
CCN1CCN(Cc2ccc(Nc3ncc(F)c(-c4cc(F)c5nc(C)n(C(C)C)c5c4)n3)nc2)CC1 + CNC(C)C(=O)NC1CN(S(=O)(=O)c2cccc(S(=O)(=O)N3CCC4CCC(C(=O)NC(c5ccccc5)c5ccccc5)N4C(=O)C(NC(=O)C(C)NC)C3)c2)CCC2CCC(C(=O)NC(c3ccccc3)c3ccccc3)N2C1=O | 58.9
O=C(c1cc(Cc2n[nH]c(=O)c3ccccc23)ccc1F)N1CCN(C(=O)C2CC2)CC1 + CNC(C)C(=O)NC1CN(S(=O)(=O)c2cccc(S(=O)(=O)N3CCC4CCC(C(=O)NC(c5ccccc5)c5ccccc5)N4C(=O)C(NC(=O)C(C)NC)C3)c2)CCC2CCC(C(=O)NC(c3ccccc3)c3ccccc3)N2C1=O | 12.7
NC1CCC(NC2CC2c2ccccc2)CC1 (centres undefined) + CNC(C)C(=O)NC1CN(S(=O)(=O)c2cccc(S(=O)(=O)N3CCC4CCC(C(=O)NC(c5ccccc5)c5ccccc5)N4C(=O)C(NC(=O)C(C)NC)C3)c2)CCC2CCC(C(=O)NC(c3ccccc3)c3ccccc3)N2C1=O | 55
C#Cc1c(F)ccc2cc(O)cc(-c3ncc4c(N5CC6CCC(C5)N6)nc(OCC56CCCN5CC(F)C6)nc4c3F)c12 (centres undefined) + CNC(C)C(=O)NC1CN(S(=O)(=O)c2cccc(S(=O)(=O)N3CCC4CCC(C(=O)NC(c5ccccc5)c5ccccc5)N4C(=O)C(NC(=O)C(C)NC)C3)c2)CCC2CCC(C(=O)NC(c3ccccc3)c3ccccc3)N2C1=O | 65.6
C=C(F)C(=O)N1CCN(c2nc(OCC3CCCN3C)nc3c2CCN(c2cccc4cccc(Cl)c24)C3)CC1CC#N (centres undefined) + CNC(C)C(=O)NC1CN(S(=O)(=O)c2cccc(S(=O)(=O)N3CCC4CCC(C(=O)NC(c5ccccc5)c5ccccc5)N4C(=O)C(NC(=O)C(C)NC)C3)c2)CCC2CCC(C(=O)NC(c3ccccc3)c3ccccc3)N2C1=O | 77
C=CC(=O)N1CCN(c2nc(=O)n(-c3c(C)ccnc3C(C)C)c3nc(-c4c(O)cccc4F)c(F)cc23)C(C)C1 (centres undefined) + CNC(C)C(=O)NC1CN(S(=O)(=O)c2cccc(S(=O)(=O)N3CCC4CCC(C(=O)NC(c5ccccc5)c5ccccc5)N4C(=O)C(NC(=O)C(C)NC)C3)c2)CCC2CCC(C(=O)NC(c3ccccc3)c3ccccc3)N2C1=O | 81.6
COc1c(OCCCN2CCOCC2)ccc2c3n(c(=NC(=O)c4cnc(N)nc4)nc12)CCN3 + CNC(C)C(=O)NC1CN(S(=O)(=O)c2cccc(S(=O)(=O)N3CCC4CCC(C(=O)NC(c5ccccc5)c5ccccc5)N4C(=O)C(NC(=O)C(C)NC)C3)c2)CCC2CCC(C(=O)NC(c3ccccc3)c3ccccc3)N2C1=O | 28.6

Incoming: viability, T/C for Cn1ncnc1[C@H]1c2n[nH]c(=O)c3cc(F)cc(c23)N[C@@H]1c1ccc(F)cc1 + CNC(C)C(=O)NC1CN(S(=O)(=O)c2cccc(S(=O)(=O)N3CCC4CCC(C(=O)NC(c5ccccc5)c5ccccc5)N4C(=O)C(NC(=O)C(C)NC)C3)c2)CCC2CCC(C(=O)NC(c3ccccc3)c3ccccc3)N2C1=O ?
Outgoing: 11.3
